B1: RSPH3 (parent)
chain: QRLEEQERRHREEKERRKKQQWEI

- Variants of: B1
- Assay comment: protein stability index of a GFP-peptide fusion (GPS, HEK-293T) (PSI 1-6); higher = more stable;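 further: lentivirally expressed fusions sorted by FACS into six bins by GFP to DsRed ratio, PSI derived from sequencing read proportions per bin multiplied by bin number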
- Experimental setup: c terminus: a fixed tail appended
Readout label: protein stability index
Answer field: number only, no words.

Examples from the recorded data:
1) R17K = 4.92
2) Q21D = 5.22
3) R2N = 5.06
4) R11E = 5.19
5) E15H = 3.91
6) W22V = 5.34
7) E23M = 4.2
8) E12N = 4.57

[ask] Sample `R2K` — what was its protein stability index?
[reply] 4.26

[ask] Fill in: protein stability index of `R11H` is ___
[reply] 4.51

[ask] Quick one: protein stability index for `E23L` ?
[reply] 4.21

[ask] Suppose we examine the variant `K18M` ; what protein stability index value has been reported?
[reply] 4.6

[ask] Fill in the blank: the reported protein stability index of `R9G` is ____.
[reply] 4.85

[ask] # lookup: protein stability index of `E7R`
[reply] 4.26

[ask] Please give the measured protein stability index for this variant: `Q1V`
[reply] 4.81

[ask] Endpoint output: protein stability index of `Q6T` . Value?
[reply] 4.81

[ask] Requested read-out: protein stability index. Entry: `E12K`
[reply] 3.58

Numbers sourced from the supplement of paper PMC10567573.
